Would you kindly list binding signal for each of these sequences?
# Target System: POU1 (OCT1 POU domain);BOB1 (OBF1, OCA-B) (human;human, UniProt P14859;Q16633 260-458;1-256, |)
# Sequence (P14859 260-458, chain 1 of 2): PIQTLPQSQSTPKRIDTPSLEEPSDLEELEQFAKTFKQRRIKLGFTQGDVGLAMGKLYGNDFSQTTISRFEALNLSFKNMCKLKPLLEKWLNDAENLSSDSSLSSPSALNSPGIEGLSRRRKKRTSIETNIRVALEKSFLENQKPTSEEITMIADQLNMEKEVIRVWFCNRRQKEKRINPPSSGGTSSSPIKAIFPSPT
# Sequence (Q16633 whole entry, chain 2 of 2, the tested form may be a part): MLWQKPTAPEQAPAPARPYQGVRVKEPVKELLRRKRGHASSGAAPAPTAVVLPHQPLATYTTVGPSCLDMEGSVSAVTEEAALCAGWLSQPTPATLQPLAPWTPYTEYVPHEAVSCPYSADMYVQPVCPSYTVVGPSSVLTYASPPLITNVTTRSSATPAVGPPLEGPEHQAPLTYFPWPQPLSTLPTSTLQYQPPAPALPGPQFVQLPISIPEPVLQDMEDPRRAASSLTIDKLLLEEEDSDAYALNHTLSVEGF
# Test Name: EMSA-SELEX-seq; with BOB1 (ternary complex band); 20 mM Tris-HCl pH 7.6, 140 mM NaCl, 10% glycerol, 0.5 mM EDTA, 0.05% Triton X-100, 0.1 mg/mL BSA, 0.1 mg/mL poly(dI-dC), 5 mM DTT, room temperature, 20 min; high values mean tight binding
# Assay Context: protein: recombinant;recombinant; copies: 1;1; dsDNA, one strand shown

The value of binding signal measured for the sequence `ATGGGAAA` turned out to be 0.118 % of ANNNNAAN 8-mers

The value of binding signal measured for the sequence `ACAATAAT` turned out to be 0.0515 % of ANNNNAAN 8-mers

The value of binding signal measured for the sequence `ACGTTAAT` turned out to be 0.073 % of ANNNNAAN 8-mers

The value of binding signal measured for the sequence `AGGATAAT` turned out to be 0.0952 % of ANNNNAAN 8-mers

The value of binding signal measured for the sequence `ATTCGAAT` turned out to be 0.08 % of ANNNNAAN 8-mers

The value of binding signal measured for the sequence `AGTACAAG` turned out to be 0.0359 % of ANNNNAAN 8-mers

The value of binding signal measured for the sequence `AGTTCAAC` turned out to be 0.0246 % of ANNNNAAN 8-mers

The value of binding signal measured for the sequence `ATTGTAAA` turned out to be 0.144 % of ANNNNAAN 8-mers

The value of binding signal measured for the sequence `ACAAGAAA` turned out to be 0.0386 % of ANNNNAAN 8-mers

The value of binding signal measured for the sequence `AGGTTAAT` turned out to be 0.0921 % of ANNNNAAN 8-mers

The value of binding signal measured for the sequence `ACCAAAAC` turned out to be 0.032 % of ANNNNAAN 8-mers

The value of binding signal measured for the sequence `AGGGAAAG` turned out to be 0.222 % of ANNNNAAN 8-mers

The value of binding signal measured for the sequence `AACTCAAC` turned out to be 0.0172 % of ANNNNAAN 8-mers

The value of binding signal measured for the sequence `ATATAAAC` turned out to be 0.055 % of ANNNNAAN 8-mers

The value of binding signal measured for the sequence `AACTCAAT` turned out to be 0.0289 % of ANNNNAAN 8-mers

The value of binding signal measured for the sequence `AGGTCAAC` turned out to be 0.0269 % of ANNNNAAN 8-mers

The value of binding signal measured for the sequence `ACTTCAAG` turned out to be 0.0168 % of ANNNNAAN 8-mers

The value of binding signal measured for the sequence `ATGCAAAA` turned out to be 3.15 % of ANNNNAAN 8-mers

The value of binding signal measured for the sequence `ACGGTAAG` turned out to be 0.0359 % of ANNNNAAN 8-mers

The value of binding signal measured for the sequence `AGGAGAAG` turned out to be 0.0507 % of ANNNNAAN 8-mers

The value of binding signal measured for the sequence `AAGCGAAC` turned out to be 0.0176 % of ANNNNAAN 8-mers

The value of binding signal measured for the sequence `ATCATAAG` turned out to be 0.0379 % of ANNNNAAN 8-mers

The value of binding signal measured for the sequence `ACAGTAAT` turned out to be 0.0406 % of ANNNNAAN 8-mers

The value of binding signal measured for the sequence `AAGCGAAA` turned out to be 0.0429 % of ANNNNAAN 8-mers

The value of binding signal measured for the sequence `AAAGTAAC` turned out to be 0.0605 % of ANNNNAAN 8-mers

The value of binding signal measured for the sequence `ACCTCAAG` turned out to be 0.0156 % of ANNNNAAN 8-mers

The value of binding signal measured for the sequence `AACGGAAG` turned out to be 0.0164 % of ANNNNAAN 8-mers

The value of binding signal measured for the sequence `AAGGTAAC` turned out to be 0.0234 % of ANNNNAAN 8-mers

The value of binding signal measured for the sequence `ACATTAAA` turned out to be 0.0624 % of ANNNNAAN 8-mers

The value of binding signal measured for the sequence `ATTTCAAG` turned out to be 0.055 % of ANNNNAAN 8-mers

The value of binding signal measured for the sequence `ATTTAAAG` turned out to be 0.152 % of ANNNNAAN 8-mers

The value of binding signal measured for the sequence `ATAGTAAC` turned out to be 0.023 % of ANNNNAAN 8-mers

The value of binding signal measured for the sequence `AGCGTAAC` turned out to be 0.0144 % of ANNNNAAN 8-mers

The value of binding signal measured for the sequence `AGCCTAAT` turned out to be 0.0324 % of ANNNNAAN 8-mers

The value of binding signal measured for the sequence `ACTTAAAT` turned out to be 0.0714 % of ANNNNAAN 8-mers

The value of binding signal measured for the sequence `AATGTAAT` turned out to be 0.109 % of ANNNNAAN 8-mers

The value of binding signal measured for the sequence `AACCTAAT` turned out to be 0.0386 % of ANNNNAAN 8-mers

The value of binding signal measured for the sequence `AGATAAAT` turned out to be 0.0617 % of ANNNNAAN 8-mers

The value of binding signal measured for the sequence `AGACAAAA` turned out to be 0.0808 % of ANNNNAAN 8-mers

The value of binding signal measured for the sequence `ATCAAAAG` turned out to be 0.0581 % of ANNNNAAN 8-mers

The value of binding signal measured for the sequence `AGCTCAAG` turned out to be 0.0187 % of ANNNNAAN 8-mers

The value of binding signal measured for the sequence `AGTTGAAC` turned out to be 0.0258 % of ANNNNAAN 8-mers

The value of binding signal measured for the sequence `AGTGTAAC` turned out to be 0.0234 % of ANNNNAAN 8-mers

The value of binding signal measured for the sequence `AGTGCAAT` turned out to be 0.0367 % of ANNNNAAN 8-mers

The value of binding signal measured for the sequence `ACGCGAAG` turned out to be 0.0168 % of ANNNNAAN 8-mers

The value of binding signal measured for the sequence `ACAACAAT` turned out to be 0.023 % of ANNNNAAN 8-mers

The value of binding signal measured for the sequence `AACAGAAC` turned out to be 0.018 % of ANNNNAAN 8-mers

The value of binding signal measured for the sequence `AGACCAAG` turned out to be 0.0164 % of ANNNNAAN 8-mers

The value of binding signal measured for the sequence `ATCTTAAA` turned out to be 0.0515 % of ANNNNAAN 8-mers

The value of binding signal measured for the sequence `AACGGAAC` turned out to be 0.025 % of ANNNNAAN 8-mers

The value of binding signal measured for the sequence `ATCAGAAC` turned out to be 0.0238 % of ANNNNAAN 8-mers

The value of binding signal measured for the sequence `AAACAAAC` turned out to be 0.109 % of ANNNNAAN 8-mers

The value of binding signal measured for the sequence `ACGTGAAA` turned out to be 0.0386 % of ANNNNAAN 8-mers

The value of binding signal measured for the sequence `AGGAAAAG` turned out to be 0.133 % of ANNNNAAN 8-mers

The value of binding signal measured for the sequence `ATGGCAAG` turned out to be 0.0351 % of ANNNNAAN 8-mers

The value of binding signal measured for the sequence `ATAGGAAC` turned out to be 0.0375 % of ANNNNAAN 8-mers

The value of binding signal measured for the sequence `ACGGCAAA` turned out to be 0.0445 % of ANNNNAAN 8-mers

The value of binding signal measured for the sequence `ATGCCAAC` turned out to be 0.025 % of ANNNNAAN 8-mers

The value of binding signal measured for the sequence `ATCGTAAT` turned out to be 0.0679 % of ANNNNAAN 8-mers

The value of binding signal measured for the sequence `AAACCAAC` turned out to be 0.0199 % of ANNNNAAN 8-mers

The value of binding signal measured for the sequence `AGTCCAAA` turned out to be 0.0332 % of ANNNNAAN 8-mers

The value of binding signal measured for the sequence `AGCCAAAG` turned out to be 0.0363 % of ANNNNAAN 8-mers

The value of binding signal measured for the sequence `AACCAAAC` turned out to be 0.0437 % of ANNNNAAN 8-mers

The value of binding signal measured for the sequence `ATAATAAT` turned out to be 0.11 % of ANNNNAAN 8-mers

The value of binding signal measured for the sequence `AGTGGAAC` turned out to be 0.0281 % of ANNNNAAN 8-mers

The value of binding signal measured for the sequence `AGGGTAAA` turned out to be 0.0679 % of ANNNNAAN 8-mers

The value of binding signal measured for the sequence `AATGGAAT` turned out to be 0.125 % of ANNNNAAN 8-mers

The value of binding signal measured for the sequence `AGCTTAAG` turned out to be 0.0379 % of ANNNNAAN 8-mers

The value of binding signal measured for the sequence `ACCCAAAT` turned out to be 0.0753 % of ANNNNAAN 8-mers

The value of binding signal measured for the sequence `AGCCAAAC` turned out to be 0.0261 % of ANNNNAAN 8-mers

The value of binding signal measured for the sequence `ACCGAAAA` turned out to be 0.0226 % of ANNNNAAN 8-mers

The value of binding signal measured for the sequence `ATTTTAAC` turned out to be 0.0652 % of ANNNNAAN 8-mers

The value of binding signal measured for the sequence `ATCCAAAC` turned out to be 0.0343 % of ANNNNAAN 8-mers

The value of binding signal measured for the sequence `ATTAAAAT` turned out to be 0.228 % of ANNNNAAN 8-mers

The value of binding signal measured for the sequence `ACTTGAAT` turned out to be 0.0613 % of ANNNNAAN 8-mers

The value of binding signal measured for the sequence `ACGCTAAG` turned out to be 0.0242 % of ANNNNAAN 8-mers

The value of binding signal measured for the sequence `AAATGAAT` turned out to be 0.181 % of ANNNNAAN 8-mers

The value of binding signal measured for the sequence `AGCTTAAC` turned out to be 0.0195 % of ANNNNAAN 8-mers

The value of binding signal measured for the sequence `ACAGGAAC` turned out to be 0.0222 % of ANNNNAAN 8-mers

The value of binding signal measured for the sequence `AGTTAAAC` turned out to be 0.0499 % of ANNNNAAN 8-mers

The value of binding signal measured for the sequence `AATTGAAG` turned out to be 0.0624 % of ANNNNAAN 8-mers

The value of binding signal measured for the sequence `ACTACAAC` turned out to be 0.0164 % of ANNNNAAN 8-mers

The value of binding signal measured for the sequence `AACCTAAA` turned out to be 0.0242 % of ANNNNAAN 8-mers

The value of binding signal measured for the sequence `AATGGAAG` turned out to be 0.0644 % of ANNNNAAN 8-mers

The value of binding signal measured for the sequence `AGCATAAG` turned out to be 0.0441 % of ANNNNAAN 8-mers

The value of binding signal measured for the sequence `AACACAAT` turned out to be 0.0293 % of ANNNNAAN 8-mers

The value of binding signal measured for the sequence `ACAAAAAT` turned out to be 0.114 % of ANNNNAAN 8-mers

The value of binding signal measured for the sequence `AGTGAAAT` turned out to be 0.196 % of ANNNNAAN 8-mers

The value of binding signal measured for the sequence `ACCTAAAC` turned out to be 0.0211 % of ANNNNAAN 8-mers

The value of binding signal measured for the sequence `ACATGAAG` turned out to be 0.03 % of ANNNNAAN 8-mers

The value of binding signal measured for the sequence `AGGGCAAC` turned out to be 0.0172 % of ANNNNAAN 8-mers
